tested on: MS2 coat protein; experiment: apparent KD of MS2 coat protein; designed switch direction (-1 OFF switch, 1 ON switch): 1; higher = weaker reporter binding; details: Eterna round: R95; input ligand: none
Please provide measured apparent KD of MS2 coat protein for the entries that follow.
Just the number in µM, nothing appended.

Query :: Fill in apparent KD of MS2 coat protein for CUAACAACAGGUUGCAGUGCUCGUCUCUAACAUGAGGAUCACCCAUGUAAUAGCCCGGUGGAAGCGCUCGGGUCACC [Tearor] (puzzle: Sensor for hsa-mir-208a) tested with MS2 coat protein.
Result :: 0.0309

Query :: State the measured apparent KD of MS2 coat protein (MS2 coat protein) of GUAAGGCAAGCUUUUUUCUCGUAGUGUAAACAUGAGGAUCACCCAUGUGCUCGCCCUGGAUCUUUGAAUCGCAGAAA [Ritiorreon] (puzzle: Sensor for hsa-mir-208a)
Result :: 0.0495

Query :: Jot down apparent KD of MS2 coat protein (MS2 coat protein) of GGAGAACAUGAGGAUCACCCAUGUGGAUGAGCGCUAGGAUAUGCGGGAGGGUGAAGAGAAGCAGAAGGAGUAGAUA [JR_SS1_Sub034] (puzzle: Same State 1) .
Result :: 0.18

Query :: State the measured apparent KD of MS2 coat protein (MS2 coat protein) of UUGGUGUAGAUACAGGAUAUGUUGCUUGUUACAUGAGGAUCACCCAUGUAUCUAUGAGAUUAAAUGCAGAAGGGUGCACAUCACU [salish99_ss2_r3_091] (puzzle: Same State 2)
Result :: 0.169

Query :: Give apparent KD of MS2 coat protein only, for GAAAAGGCAACGCAGGAUAUGAAAGGUGAAACAUGAGGAUCACCCAUGUGCUACCUUCCGAUAAAUCAGAAGGGCGACGCCUAAA [Usbemaus] (puzzle: Same State 2) , using MS2 coat protein data.
Result :: 0.0111

Query :: Jot down apparent KD of MS2 coat protein (MS2 coat protein) of GGUGAGAGAGUCAAGGAUAUGAAAGGAGAGACAUGAGGAUCACCCAUGUAAGAGAGAGAGGAGAGUUAGAAGGUGAAGAGAGUGG [Altered State 2-24 - Jieux - Same State 2] (puzzle: Same State 2) .
Result :: 0.0647

Query :: Output reported apparent KD of MS2 coat protein of the sequence AGGUAACAUGAGGAUCACCCAUGUAAGGUGAACGUAGGAUAUCGAAGAGGUAGGGUAGGACGAGAAGGACGAGGAA [JR_SS1_Sub092] (puzzle: Same State 1) on MS2 coat protein.
Result :: 0.481

Query :: Please indicate recorded apparent KD of MS2 coat protein of AAAAGUUGCGGGCAGGAUAUGUAUUAAAAUACAUGAGGAUCACCCAUGUGCGGGUAUAACACCCGACAGAAGGGCCAAUCGCGAC [Mat - Same State 2 - Mod of UCT - D95] (puzzle: Same State 2) measured with MS2 coat protein.
Result :: 0.226

Query :: Under MS2 coat protein, report apparent KD of MS2 coat protein for UAAAAACAUGAGGAUCACCCAUGUCAAAAGACAUGAGGAUAUGUACAGACUUCGGUCUGUACAGAAGGCAUGAAAA [salish99_ss1_r3_094] (puzzle: Same State 1)
Result :: 0.362

Query :: Under MS2 coat protein: report apparent KD of MS2 coat protein of UUUUUUUUUUAGAGACAAGCUUUUUGAUCACAUGAGGAUCACCCAUGUCUCGUCUUAUUUUUUUUUUUUUUUUUUUU [BA Sensor hsa-mir-208a - 2 - 4] (puzzle: Sensor for hsa-mir-208a) .
Result :: 0.103

====

test system: MS2 coat protein; test: apparent KD of MS2 coat protein; designed switch direction (-1 OFF switch, 1 ON switch): -1; higher = weaker reporter binding; conditions: input ligand: FMN 200 uM
Classification field: enter Fulfilled for apparent KD of MS2 coat protein values not below 80 nM, Not fulfilled for values below it.

Query :: Is reported apparent KD of MS2 coat protein greater than or equal to 80 nM here: ACAGACCGUGUUAGGAUAUUAUUUUACUCAAGUAGUGAGAAGGGACAUGAGGAUCACCCAUGUGUGGGAGUUGA [Eternabot (L2) Solution 42] (Eterna round: R97, puzzle: Brourd's mod of Exclusion 4)
Result :: Fulfilled

Query :: Does AGACUUAUAGGAUAUACAUGAGGAUCACCCAUGUCGCCAGGCGGUAGCAGAGUCUUUUGUAGAAGGAUGACAAC [Eternabot (Original) Solution 35] (Eterna round: R97, puzzle: Exclusion 3) have a reported apparent KD of MS2 coat protein of at least 80 nM?
Result :: Not fulfilled

Query :: Could you verify whether the entry AGCCACAGAGGAUAUACAUACAUCCAGUAGCGUAUAUCGCUACAUGAGGAUCACCCAUGUAGAAGGCUGUGGCA [Omei Ex2 BD B23] (Eterna round: R97, puzzle: Exclusion 2) shows apparent KD of MS2 coat protein of no less than 80 nM?
Result :: Fulfilled

Query :: Test whether the sequence UGCGGAAGAGGAUAUACAUUGAAUUUGAUUCAUGUAAAACUACAUGAGGAUCACCCAUGUAGAAGGCUUUCGCU [Mat - Exclusion 2 - JL Mod - D66] (Eterna round: R97, puzzle: Exclusion 2) records apparent KD of MS2 coat protein of 80 nM or higher.
Result :: Not fulfilled

Query :: hey, is apparent KD of MS2 coat protein for this one >= 80 nM? CGGGUGCGGUGAGGAUAUCCGAAAGGAAGUGUAGGAGAAGGCACCAAGAACAUGAGGAUCACCCAUGUGACCUCAUAAGCCCGG [PowerStrip EXNG 1.9] (Eterna round: R96, puzzle: Exclusion NG 1)
Result :: Not fulfilled

====

test system: MS2 coat protein; test: apparent KD of MS2 coat protein, switch ON state; designed switch direction (-1 OFF switch, 1 ON switch): -1; higher = weaker reporter binding; details: FMN input: 0 or 200 uM; Eterna round: R93 (includes R88 designs)
endpoint.name: apparent KD of MS2 coat protein (nM)
// units = nM; emit number, no label

Query :: Quickly give me recorded apparent KD of MS2 coat protein for AAAAAUUGAGGAUAUACGUACAUGUCGAAAGACGUGAAGGGACAUGAGGAUCACCCAUGUAGAAGGCGAAAAAA [Mat - Exclusion 2 - JL mod - D73]
Result :: 45.6

Query :: Determine its reported apparent KD of MS2 coat protein: AGGGAGUGAGGAUAUGCGAAAUAAAAAGAAGGAAAAAAAGAGCAGAAGGCACAUGAGGAUCACCCAUGUGAGAA [milkweed 11]
Result :: 22.6

Query :: Look up and state reported apparent KD of MS2 coat protein for AAUAAACAUGAGGAUCACCCAUGUCAGGAUAUGCACAAACAAACAAACAAACAAGCUAGCAGAAGGGACACUAC [Amethyst 87]
Result :: 23.1

Query :: Please indicate apparent KD of MS2 coat protein recorded for CUCAUGUCAGGAUAUGUAGCAUGAUACGAAAGUAUCAUGCUACAGAAGGGACAUGAGGAUCACCCAUGUCCAAA [Ex4: 944]
Result :: 119

Query :: Could you please provide reported apparent KD of MS2 coat protein for AUAAACGGAGGAUAUACAUGAGGAUCACCCAUGUAAAAAAAAAAAAGUUCCUCAAAAAGUAGAAGGUCGAAUAA [JR_Exc003_Sub012] ? Thanks!
Result :: 15.5

Query :: Return the recorded apparent KD of MS2 coat protein value; entry: GAAAAGUCAGGAUAUGCAGAAAAAAAAACGAAAAAAAAACUGCAGAAGGGACAUGAGGAUCACCCAUGUUAAAG [Mat - Exclusion 4 - Mayanna - D128]
Result :: 50.9

Query :: Look up and state reported apparent KD of MS2 coat protein for AGUCAGAGAGGAUAUACAAGGGAAAAAAAAGUUAGAUCCCUACAUGAGGAUCACCCAUGUAGAAGGCUCUGACA [Ex2 Design 152: Sub-opt 16]
Result :: 108

Query :: In one line, give reported apparent KD of MS2 coat protein of the entry AAGAAGUCAGGAUAUGCCAGAGAACAAGAAAGUGACGAAUAGCAGAAGGGACAUGAGGAUCACCCAUGUAAAGA [Opal 10] .
Result :: 33.7

Query :: Specify apparent KD of MS2 coat protein for AAAGGACAUGAGGAUCACCCAUGUGAGGAUAUGCGAAAAAAAAAAAUAAAAAAAAAAAGUAGAAGGCACACCAA [Mat - Exclusion 1 - Eli mod - D57] and stop.
Result :: 99.4

Query :: Give apparent KD of MS2 coat protein for AACAUGUAAGGAUAUCAAAGAAAAGAAAAGAAAGAAAAGAAUGAGAAGGUACAUGAGGAUCACCCAUGUAAGAA [EteRNA is fun!]
Result :: 27.9

Query :: Identify the reported apparent KD of MS2 coat protein for the following entry. AAAAAGGCAGGAUAUACAAAAAAGAGAAGAGAGGAGGAGGGACAUGAGGAUCACCCAUGUAGAAGGGCCAAAAA [Karl Gunnar Myrdal]
Result :: 31.5

Query :: Provide measured apparent KD of MS2 coat protein value, entry: AGUUGGCGAGGAUAUACAUGAGGAUCACCCAUGUGAGAGUAAAAAGUGAGAAAGAAAAGUAGAAGGCGCUAACA [JL Lego Mod 19]
Result :: 48.8

Query :: Tell me its apparent KD of MS2 coat protein given AAGAAGAGAGGAUAUACAUGAGGAUCACCCAUGUAAAAGAAAGAGGGAAAAGAGAAAAGUAGAAGGCUCAAGAA [Arsinoe II] as the entry.
Result :: 23.9
